This collection of values is drawn from patent US20250195685A1.

STUDY_SYSTEM: T1, human CD8αα homodimer, recombinant protein (Acro Biosystems) (human, UniProt P01732 22-182)
T1 construct: also called CD8αα antigen; biotinylated CD8α recombinant protein (CDA-H82E3)
T1 sequence (P01732 22-182 limits assumed): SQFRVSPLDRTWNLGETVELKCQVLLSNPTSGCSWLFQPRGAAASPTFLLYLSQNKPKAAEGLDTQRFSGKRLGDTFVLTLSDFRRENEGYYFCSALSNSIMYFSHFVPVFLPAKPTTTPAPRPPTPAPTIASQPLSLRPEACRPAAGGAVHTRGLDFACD
ASSAY_TEXT: BLI kinetics, F(ab) on biotinylated CD8α (SA-XT sensor), 1:1 fit, 37 °C [CONT'ED]
ASSAY_METRIC: Kd (nM)
Numeric answer only, unit nM assumed.

Some solved cases for reference:
BINDER | Kd (nM)
CBD1039 (Fab, V domains shown, also called h1017-H5/L2 F(ab)) VH: QVQLVQSGAEVKKPGASVKISCKASRYTFTDYNLHWVRQAPGQGLEWIGFIYPYNGGTGYAQKFQGRATLTVDYSTSTAYMELSSLRSEDTAVYYCARDHRYNEGVSFDYWGQGTTLTVSS VL: DIQLTQSPSSLSASVGDRATITCRASESVDGFGNSFMNWYQQKPGKAPKLLIYLASNLESGVPSRFSGSGSGTDFTLTISSVQPEDFATYYCQQNNEDPYTFGQGTKLEIK | 4.59
CBD1034 (Fab, V domains shown, also called h1017-H2/L3 F(ab)) VH: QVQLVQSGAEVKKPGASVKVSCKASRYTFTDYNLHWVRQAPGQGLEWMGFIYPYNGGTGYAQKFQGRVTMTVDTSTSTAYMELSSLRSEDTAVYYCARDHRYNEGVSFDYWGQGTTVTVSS VL: DIQLTQSPSSLSASVGDRATITCRASESVDGFGNSFMNWYQQKPGKAPKLLIYLASNLESGVPSRFSGSGSRTDFTLTISSVQPEDFATYYCQQNNEDPYTFGQGTKLEIK | 1.82
CBD1036 (Fab, V domains shown, also called h1017-H3/L3 F(ab)) VH: QVQLVQSGAEVKKPGASVKISCKASRYTFTDYNLHWVRQAPGQGLEWIGFIYPYNGGTGYAQKFQGRATLTVDTSTSTAYMELSSLRSEDTAVYYCARDHRYNEGVSFDYWGQGTTLTVSS VL: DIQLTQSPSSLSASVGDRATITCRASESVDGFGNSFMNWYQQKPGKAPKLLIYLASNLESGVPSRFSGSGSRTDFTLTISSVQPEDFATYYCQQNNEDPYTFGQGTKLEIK | 1.68

Short answer for CBD1032 (Fab, V domains shown, also called h1017-H1/L1 F(ab)) VH: QVQLVQSGAEVKKPGASVKVSCKASRYTFTDYNLHWVRQAPGQGLEWMGFIYPYNGGTGYAQKFQGRVTMTRDTSTSTVYMELSSLRSEDTAVYYCARDHRYNEGVSFDYWGQGTTVTVSS VL: DIQMTQSPSSLSASVGDRVTITCRASESVDGFGNSFMNWYQQKPGKAPKLLIYLASNLESGVPSRFSGSGSGTDFTLTISSLQPEDFATYYCQQNNEDPYTFGQGTKLEIK : Kd was 1.59
